Cited source for all entries: PubChem BioAssay (NCI)

- Run Description: NCI Yeast Anticancer Drug Screen. Data for the rad50 strain (AID 155);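 also: 0% = growth of vehicle-only cultures of the same strain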
- Assay Setup: S. cerevisiae rad50 strain growth inhibition; at 5.0 µM (retest, dose inferred, filed as 0.5); stronger effect = higher value
The panel holds about 79,000 compounds, 15% with a hit somewhere; the sample as a whole holds those more often. Where a SMILES comes first, the peptide text is derived from it. [ ]: non-standard residue; d: D form. ξ: configuration not given here. ξV = CC(C)C(N)C(=O)O
Measured growth inhibition, listed per entry.
Use % as the unit, but write only the number.

Sure, the documented growth inhibition for Cc1n(-c2ccccc2)c2c([n+]1Cc1ccc([N+](=O)[O-])cc1)C(=O)c1ccccc1C2=O is 1

Sure, the documented growth inhibition for CC(O)CN1CCN(CC(C)O)CC1.[I][Pt+2][I] (stereo unspecified) is -5

Sure, the documented growth inhibition for O=C(COc1ccc(Cl)cc1Cl)Nc1cccc(C(F)(F)F)c1 is -4

Sure, the documented growth inhibition for CC(C)C(NC(=O)CN)C(=O)O (stereo unspecified) (H-Gly-[ξV]-OH) is -165

----------
- Run Description: NCI Yeast Anticancer Drug Screen. Data for the mlh1 rad18 strain (AID 175)
- Assay Setup: S. cerevisiae mlh1 rad18 strain growth inhibition; at 50.0 µM (retest, dose inferred, filed as 5.0); stronger effect = higher value
- Description: Growth inhibition of yeast strains with defined genetic alterations is measured as a screen for potential anti-cancer activity. Selected strains with alterations in DNA damage repair or cell cycle control were exposed to compounds and growth inhibition was measured relative to vehicle treated controls. The strain used in this assay is mlh1 rad18
The panel holds about 79,000 compounds, 15% with a hit somewhere; the sample as a whole holds those more often.
Measured growth inhibition, listed per entry.
Use % as the unit, but write only the number.

Example molecules with recorded growth inhibition:
molecule=Nc1ncnc2c1ncn2CCCl result_value=-4
molecule=CC(=O)c1ccc(N)cc1 result_value=96
molecule="COC1OC2COC(c3ccccc3)OC2C(O)C1OS(=O)(=O)c1ccc(C)cc1 (stereo not given)" result_value=49
molecule=O[Si](c1ccccc1)(c1ccccc1)c1ccccc1.O[Si](c1ccccc1)(c1ccccc1)c1ccccc1.O[Si](c1ccccc1)(c1ccccc1)c1ccccc1.[O]=[V] result_value=58

Sure, the documented growth inhibition for COc1cc2c3c(c1)SCCC(=O)N3CCN2 is 14

Sure, the documented growth inhibition for O=C1N(c2ccccc2)C(=O)N1c1ccccc1 is -11

Sure, the documented growth inhibition for CC(C)CCCC(C)C1CCC2C3CC=C4CC([n+]5cccc6ccccc65)CCC4(C)C3CCC12C (stereo not given) is 89

Sure, the documented growth inhibition for CC(C)c1ccc(C=Nc2ccc(SSc3ccc(N=Cc4ccc(C(C)C)cc4)cc3)cc2)cc1 is -11

Sure, the documented growth inhibition for CCOC(=O)C1=C(C(=O)c2ccc(C)cc2)C(c2cccc([N+](=O)[O-])c2)C(C(=O)c2ccc(C)cc2)=C(C(=O)OCC)N1 is -17

Sure, the documented growth inhibition for OCc1ccccc1C(c1ccccc1)c1ccccc1 is 94

----------
- Run Description: NCI Yeast Anticancer Drug Screen. Data for the mec2-1 strain (AID 157)
- Assay Setup: S. cerevisiae mec2-1 strain, at 5.0 µM (retest, dose inferred, filed as 0.5)
Compounds without any hit were thinned out: in the full panel of roughly 79,000, 15% have a hit. Active and inactive are the calls of the source. No stated cut-off is given here; in the data, active means growth inhibition above about 70%; inactive means the rest. Where a SMILES comes first, the peptide text is derived from it.
Response enum: active, inactive

compound="COC(=O)C(=O)C(C(=O)C(c1ccccc1)c1ccccc1)c1nc2n(c1O)/C(=N/C(=O)Nc1ccc(Cl)cc1)N=N2 (centres undefined)" assigned_class=inactive
compound=O=C1C=C(O)c2ccccc2C1=O.[Ag] assigned_class=active
compound=CCOC(=O)C(Cc1ccccc1[N+](=O)[O-])C(=O)OCC assigned_class=inactive
compound=COc1ccc(NC(=O)C(=O)NO)c(OC)c1 assigned_class=inactive
compound="COC1/C=C/OC2(C)Oc3c(C)c(O)c4c(c3C2=O)C(=O)C=C(NC(=O)/C(C)=C\\C=C\\C(C)C2OC(C)(C)OC(C2C)C(C)C(OC(C)=O)C1C)C4=O (centres undefined)" assigned_class=inactive

[Q] Recorded call for CC(C)CCC[C@@H](C)[C@H]1CC[C@H]2[C@@H]3CC=C4N5CCCN=C5CC[C@]4(C)[C@H]3CC[C@]12C ?
[A] inactive

[Q] Recorded call for Cc1nc2c(Br)cc(Br)cc2c(=O)n1-c1ccccc1NC1OC(CO)C(O)C(O)C1O (centres undefined) ?
[A] inactive

[Q] Recorded call for COc1cc(NCCCCCCC2CCCCN2)c2ncccc2c1 (centres undefined) ?
[A] inactive

[Q] Recorded call for CC(C)C(NC(=O)C(N)CCC(=O)O)C(=O)O (stereo not drawn) (H-Glu-Val-OH; configuration not given here) ?
[A] inactive

[Q] Recorded call for CCCCCCCCCC(=O)c1ccc(O)c(O)c1O ?
[A] active

[Q] Recorded call for O=P(C(=S)NC1CC2C=CC1C2)(c1ccccc1)c1ccccc1 (centres undefined) ?
[A] inactive
